Assay: soluble on expression in E. coli; label from the status in PepcDB or PDB records
measurement_name: soluble on expression in E. coli

INSERT INTO results (residue_sequence, data_value) VALUES
  ('MSLYELTEDFKLRKITKYELDGIDEREDLLVIPPSSKAGPCGNACLFCYLLQNPPEMIYKVPRHDTLNDPDLENRIRYARKHYDLWIRVTDTSGNIKFDENRIKSLYDAGLDEIQISVHTTKKDVRARLMRNRQAGKLIDLLPLVAKHFRTIADIILTPGFNVEDIGEIIEDLDSMGVHEVRLFPVGVTRYNKFGVRPLTREELSYVKGIALEKDKELAIKVVIPPIFLALLGEFTTGLEPFDIEPDFPTYIFTGELAYQEMKRLFPRVNVIMVKNEFFGGNIGSAGLLTGRDILREVEKLPEVDLGLIILPELMFYGDMTLDGWRRQELFSKILIEKGYIVETALEPTEIPRVIEKVTLEGHHHHHH', 'soluble'),
  ('MQGKALQDFVIDKIDDLKGQDIIALDVQGKSSITDCMIICTGTSSRHVMSIADHVVQESRAAGLLPLGVEGENSADWIVVDLGDVIVHVMQEESRRLYELEKLWS', 'soluble'),
  ('MSSEKRVGMVEKSNNKRQRVNQVPVFSINDHHDVLVEILRRLDGSSLCSAACVCRLWSAVARNDSIWEELCFRQVSPRPSLSLRSVVSALGGYRCLYFLCIRPVLARLPKLLWTRDQLQLSLSLYCVHYYERLYVGAWLGDAPPSSLIFLRKPVNVV', 'soluble'),
  ('QETEDPACCSPIVPRNEWKALASECAQHLSLPLRYVVVSHTAGSSCNTPASCQQQARNVQHYHMKTLGWCDVGYNFLIGEDGLVYEGRGWNFTGAHSGHLWNPMSIGISFMGNYMDRVPTPQAIRAAQGLLACGVAQGALRSNYVLKGHRDVQRTLSPGNQLYHLIQNWPHYRSP', 'soluble'),
  ('MGSDKIHHHHHHMIGEKIISFESIDSTNRFLKENYRFYPDGTVVVALEQTSGYGRSGRHWHSPKGGLWFSVLFKPRKPLELSFYTRVFSVAVVKTLENMKIHANIKWPNDVYINGRKLAGVLSEGIFEGAKPLAVVVGVGMNVNNEIPAELKTRAISLKEIMGKEISIVKLMESMLKNARVIFRKYSRKKEALTRIWKRYLLQKEGDLISLEGKKGKIVKINPDSLLIDFDGEIKKVYSLSPH', 'not soluble'),
  ('MIYKACIRKRCGGVCVGEELKPEKIQEIRLGDCPICGGKGTLKAIQFIHRIPYFGEVMESTVVCERCGYRNSDVIILEEREPRLYEVKVEEEKDLFIRVVRSKSGTIELEELGIKIEPGPAAEGFVSNIEGVLERAKEVLLMARDFKEQENDREAVRRIDELLKYIEEVKEGKKPLTVRIMDPFGNSALIGEKVKSRKLTKEEIRKLSKGPYIVIEPDEVPQQLEHHHHHH', 'not soluble'),
  ('SREGVLYDGDSLAYIIAKHRQQLGELQGGVAGTLMTNLAVEQAFERLGIPFARANVGDRYVSELLQQNDWYLGAENSGHIICRDKHTTGDGIISALQVLYALRDTGLTLADFMRDVPFF', 'not soluble');

* * *

Experiment: soluble on expression in E. coli; label from the status in PepcDB or PDB records
measurement_name: soluble on expression in E. coli

INSERT INTO results (residue_sequence, data_value) VALUES
  ('MPPIPEPEIDPVLKELLYAYSVISRARRYAGMAGVPLPLSLTEINEYLATHPVLIERDEFEAVIFALDDQYFQEQCV', 'not soluble'),
  ('KVLGDGSYLFEGKTSLSDVRHYLDLPENAFGELGDEVDTLSGLFLEIKQELPHVGDTAVYEPFRFQVTQMDKRRIIEIKIFPFERTWEVE', 'not soluble'),
  ('MSAVTYTFLGPQGTFTEAALMQVPGAADATRIPCTNVNTALERVRAGEADAAMVPIENSVEGGVTATLDAIATGQELRIIREALVPITFVLVARPGVELSDIKRISTHGHAWAQCRLWVDEHLPNADYVPGSSTAASAMGLLEDDAPYEAAICAPLIAAEQPGLNVLAEDIGDNPDAVTRFILVSRPGALPERTGADKTTVVVPLPEDHPGALMEILDQFASRGVNLSRIESRPTGQYLGHYFFSIDADGHATDSRVADALAGLHRISPATRFLGSYARADKQPAVVAPHTSDAAFASAHAWVDSILKGS', 'soluble'),
  ('SLTAISKMTRGLDYYEVMGLTRSANDIDIRRAYRRLALKYHPDINKDGAAGDEFLRICEAYEVLCDPKTKGFYDLYGEDALKDGISDGNGGLKGPMYRFNPEESPKAVFERFFGTANPYEALEALSNQFESMTSEEAPARGKNKVYPLELTLEEIFHGCLKKVAHKRKVLLFSGEYVEEERQLTVDVKPGLPTGTRFVFEGEGNKTPKKEPGPVVFVLKPKPHPRFVRRGSDLVHKVTLPLHHALIGTTLDIRTLDDRDLKVPISDIMRPGSSLTVPGEGMPLPATPSARGNLVIEIDLLFPTHLTETQKMLLRSAFFLPPPTEQNEETKKALRDYEAAFKHDLKGWATVFKRL', 'not soluble'),
  ('MSGIFSVYVGNAPFQTTEEELGNFFSSIGQINNVRIVCDRETGRPRGFAFIEFAEEGSAQRAVEQMNGAEFNGRPLRVNLANK', 'soluble');

* * *

Experiment: soluble on expression in E. coli; label from the status in PepcDB or PDB records
measurement_name: soluble on expression in E. coli

INSERT INTO measurements (residue_sequence, data_value) VALUES
  ('GSHMGGGGGIVLFVDFDYFYAQVEEVLNPSLKGKPVVVCVFSGRFEDSGAVATANYEARKFGVKAGIPIVEAKKILPNAVYLPMRKEVYQQVSSRIMNLLREYSEKIEIASIDEAYLDISDKVRDYREAYNLGLEIKNKILEKEKITVTVGISKNKVFAKIAADMAKPNGIKVIDDEEVKRLIRELDIADVPGIGNITAEKLKKLGINKLVDTLSIEFDKLKGMIGEAKAKYLISLARDEYNEPIRTRVRKSIGRIVTMKRNSRNLEEIKPYLFRAIEESYYKLDKRIPKAIHVVAVTEDLDIVSRGRTFPHGISKETAYSESVKLLQKILEEDERKIRRIGVRFSKFIEAIGLDKFFDT', 'soluble'),
  ('MGSDKIHHHHHHASCEKDPDMGKLDDNYLVYTNYDKQANFKDFSTFYLADKILVISDSKEPEYLEGEGAEQILAAYTENMEAKGYQPAADKESADLGIQVSYIASTYYFTGYTQPEWWWGYPGYWGPSYWGNWGGWYYPYAVTYSYSTNSFITEMVNLKADEGEGKKLPVVWTSYLTGFETGSKAINRTLAIEAVNQSFTQSPYLTNK', 'not soluble'),
  ('MIRRRHSTTRIDRRPDGLTIYYKRANDDMEEEMLRVSVKPEGKNINDSLRSSKSSSSPPSRNSSLNLKTLKKDRKSKEGKPKSSSKHGKRMTSRAIHVSKKWSQFNRREDKTDYLDDETMQILEDLKILNCKIRKRFQIGTTCPHSLAKTDILSSSQSSKSQKSSTTTSSPVLTAVAYDYRGIPLTAPTVFPGARSEKTRETTRKAARAFARMEKEREDANNSSSRSRKTYQSRSPTGSEDSSPVIKLTRVSSGTRFPGASSPGTRERSRLMLKQCAMKKQLDEIARSLKSSKKSRKSMKSKKEKKSKPASLKTIYSKM', 'not soluble'),
  ('MSADHDHDHDHDHDHKPAPMVEEVSDFEILEMAVRELAIEKGLFSAEDHRVWKDYVHTLGPLPAARLVAKAWLDPEYKKLCIEDGVEASKAVGVNWVTSPPTQFGTPSDYCNLRVLADSPTLKHVVVCTLCSCYPRPILGQSPEWYRSPNYRRRLVRWPRQVLAEFGLQLPSEVQIRVADSNQKTRYIVMPVRPEGTDGWTEDQLAEIVTRDCLIGVAVPKPGITVNAKRPVLKANRPVHHDH', 'soluble'),
  ('MGREFIPLFEDWAATYDQTVQGLDIQYKEAFRGYDHILDAIVRKSGTHVLEFGPGTGNLTAKLLDAGKTVFGIEPSPAMRKLASDKLSGRTEIVDGDFLTFPEPPFQADTIVSSYAFHHLTDEEKRAAIKQYGKYLHLHDKIVFADTVFENAQAYQQAIDKARSQGFYQLANDLETEHYPTLDALKEMFTAEGFAVRFTQQNDFVWIMEAIKRLEHHHHHH', 'not soluble'),
  ('MKWHGLPACDSNPNSTTEFCRTRRPTKTMNSPATQTATPTNVDIASIVEQVLRRLRDQTNTNGSTSKPATHAPSAHVLSDKVISVDVIRGIPSGVTQVQLSGGIVTPAARDEMRARGISLAGAESTSAAAIKPASNSGKRFIQLHTDTSSKSIRDALARQLALRGVDHCPRAHRSVIVTKHPATALLGRIQSGARAVLITRLEDIPRFASEIDADTFVLDMQRFNLVALVNAATSIAQLSTSSTSQEAT', 'not soluble');

Values compiled from the DeepSol protein solubility set.
